Property: log10(EC50); scope: individual binders
target: T1, BAFF (ACROBiosystems, BAF-H5248) (UniProt Q9Y275 134-285); experiment: ELISA, fusion protein coated, BAFF titrated, Anti-His-HRP
T1 construct: Bought protein used in the ELISA with coated test sample
The common logarithm of EC50 in nM is what is listed.

binder	valueObserved
TACI-9-15Fc8 fusion protein (Fc fusion, Full-length chain) STSCREEQGEFYDHLLRDCISCASICGQHPKQCAAFCEEPKSSDKTHTCPPCPAPEAEGAPSVFLFPPKPKDTLMISRTPEVTCVVVDVSHEDPEVKFNWYVDGVEVHNAKTKPREEQYNSTYRVVSVLTVLHQDWLNGKEYKCKVSNKALPSSIEKTISKAKGQPREPQVYTLPPSRDELTKNQVSLTCLVKGFYPSDIAVEWESNGQPENNYKTTPPVLDSDGSFFLYSKLTVDKSRWQQGNVFSCSVMHEALHNHYTQKSLSLSPGGGGSSTSCREEQGEFYDHLLRDCISCASICGQHPKQCAAFCESK	1.02

What does the record list as log10(EC50) for TACI-9-15Fc7 fusion protein (Fc fusion, Full-length chain) STSCREEQGEFYDHLLRDCISCASICGQHPKQCAAFCEEPKSSDKTHTCPPCPAPEAEGAPSVFLFPPKPKDTLMISRTPEVTCVVVDVSHEDPEVKFNWYVDGVEVHNAKTKPREEQYNSTYRVVSVLTVLHQDWLNGKEYKCKVSNKALPSSIEKTISKAKGQPREPQVYTLPPSRDELTKNQVSLTCLVKGFYPSDIAVEWESNGQPENNYKTTPPVLDSDGSFFLYSKLTVDKSRWQQGNVFSCSVMHEALHNHYTQKSLSLSPGGGGSSTSCREEQGEFYDHLLRDCISCASICGQHPKQCAAFCEQK ?
0.95

And then TACI-9-15Fc5 fusion protein (Fc fusion, Full-length chain) STSCREEQGEFYDHLLRDCISCASICGQHPKQCAAFCEDKTHTCPPCPAPEAEGAPSVFLFPPKPKDTLMISRTPEVTCVVVDVSHEDPEVKFNWYVDGVEVHNAKTKPREEQYNSTYRVVSVLTVLHQDWLNGKEYKCKVSNKALPSSIEKTISKAKGQPREPQVYTLPPSRDELTKNQVSLTCLVKGFYPSDIAVEWESNGQPENNYKTTPPVLDSDGSFFLYSKLTVDKSRWQQGNVFSCSVMHEALHNHYTQKSLSLSPGK , what is it?
0.95

And then TACI-9-15Fc6 fusion protein (Fc fusion, Full-length chain) STSCREEQGEFYDHLLRDCISCASICGQHPKQCAAFCEEPKSSDKTHTCPPCPAPEAEGAPSVFLFPPKPKDTLMISRTPEVTCVVVDVSHEDPEVKFNWYVDGVEVHNAKTKPREEQYNSTYRVVSVLTVLHQDWLNGKEYKCKVSNKALPSSIEKTISKAKGQPREPQVYTLPPSRDELTKNQVSLTCLVKGFYPSDIAVEWESNGQPENNYKTTPPVLDSDGSFFLYSKLTVDKSRWQQGNVFSCSVMHEALHNHYTQKSLSLSPGK , what is it?
0.93

And then RCT-18 (Telitacicept) (Fc fusion, Positive control; TACI part is positions 13-118 of the extracellular region of human TACI, the rest is Fc) SRVDQEERFPQGLWTGVAMRSCPEEQYWDPLLGTCMSCKTICNHQSQRTCAAFCRSLSCRKEQGKFYDHLLRDCISCASICGQHPKQCAYFCENKLRSPVNLPPELDKTHTCPPCPAPEAEGAPSVFLFPPKPKDTLMISRTPEVTCVVVDVSHEDPEVKFNWYVDGVEVHNAKTKPREEQYNSTYRVVSVLTVLHQDWLNGKEYKCKVSNKALPSSIEKTISKAKGQPREPQVYTLPPSRDELTKNQVSLTCLVKGFYPSDIAVEWESNGQPENNYKTTPPVLDSDGSFFLYSKLTVDKSRWQQGNVFSCSVMHEALHNHYTQKSLSLSPGK , what is it?
1.98

Origin of values: patent US20240301031A1
